- TEST_SYSTEM: Gal(b1-4)GlcNAc(b1-3)Gal(b1-4)GlcNAc(b1-3)Gal(b1-4)GlcNAc(b1-2)Man(a1-3)[Gal(b1-4)GlcNAc(b1-3)Gal(b1-4)GlcNAc(b1-3)Gal(b1-4)GlcNAc(b1-2)Man(a1-6)]Man(b1-4)GlcNAc(b1-4)[Fuc(a1-6)]GlcNAc
- TEST: glycan array binding signal (z-score within array); higher = stronger binding
- CONDITIONS: glycan notation: IUPAC condensed, linker removed
The full list was thinned out, with the strongest signals kept by preference.
QUANTITY_NAME: glycan array binding signal (z-score)
One number for each entry.

SP16665A-bot-344-23-344 (Bacteroides ovatus) (protein) SDNEFPDFDYQTVYFANQYGLRTIELGESEFVDNTLDNQHKMVIKAAWGGGYTNRNNVVINFKVDESLCDNLYFKDTDQPLVPMPASYYTLASDRIAIPKGQIMAGVEVQLTDDFFADEKSISENYVIPLLMTNVQGADSILQGKPVVENPVLTNAGDWSILPQNFVLYAVKYVNPWHGEYLRRGIDHATVAGTSKDIIRHEQFVENDEVVNISTKSMKDNLLTLKTKDESGKDISYTVRLSFAEDGSCTVHSGSQNVVVSGSGKFVSKGEKNSLGGKDRNAIYLDYTVNLTDNNIQLATKDTLVLRTRNVYGGKSLEVVRK: 2.77

Let's switch to this binder now.
In: Give reported glycan array binding signal (z-score) value for SP15308A-bot-339-19-339 (Bacteroides ovatus) (protein) ACNNEWEDEQYEQYISFKSPIPAGGEGVTDIYVRYKEDGKVTYRLPIVVSGSTTNTLDREVHIAVDKDTLETLNIERFSIHRPGLWYTALEEDKYDFPKTVHISAGSSVEQLNIDFNLQGIDMLEKWVLPLTIVDDPSYNYKSHPRKNYAKALLRVIPFNNYSGSYTSSAMKVYTYINGKPDTNARTANKRTGYVINDNTVFFYAGLISEDLDKEVREKYKINVHFNEDGTLHMEQGDPTNKMKFELIGTPTYSKTSVMDATRPYLERRYVQIMFEYDFEDFSYGGNGVDVIPIKYKVEGSMTLQRNINTQIPDEDQQIEW
Out: 2.77
